Quick reference for viability, T/C among some molecules
System: 926638-142-R-J1-PDC complex spheroid viability
method notes: Anticancer human tumor 926638-142-R-J1-PDC patient-derived endometrial carcinoma cell line growth inhibition [POLQ]
stated conditions: second compound 0.316 µM; first compound 1 µM; stronger effect = lower value

Example entries and their recorded answers appear below.
O=C(Nc1ccc(O)c(NS(=O)(=O)c2ccc(F)cc2)c1)c1ccc(-c2ccccc2)cc1 + Nc1ccc(C#CCN(C(=O)Cc2ncc(C(F)(F)F)cc2C(F)(F)F)c2ccc(F)cc2)nn1    116%
C#Cc1c(F)ccc2cc(O)cc(-c3ncc4c(N5CC6CCC(C5)N6)nc(OCC56CCCN5CC(F)C6)nc4c3F)c12 (stereo unspecified) + Nc1ccc(C#CCN(C(=O)Cc2ncc(C(F)(F)F)cc2C(F)(F)F)c2ccc(F)cc2)nn1    76.7%
CC1COCCN1c1cc(C2(O)CC3CCC(C2)O3)c2cnn(-c3ccn[nH]3)c2n1 (stereo unspecified) + Cc1cccc(N(C)C(=O)C2C(O)CCN2c2nc(C)cc(C(F)(F)F)c2C#N)c1    11.6%

Query: I would be grateful if you could share the reported viability, T/C for CC1COCCN1c1cc(C2(S(C)(=N)=O)CC2)nc(-c2ccnc3[nH]ccc23)n1 (stereo unspecified) + Cc1cccc(N(C)C(=O)C2C(O)CCN2c2nc(C)cc(C(F)(F)F)c2C#N)c1 .
Result: 79.5%

Query: I would be grateful if you could share the reported viability, T/C for O=c1[nH]cc(F)c(=O)[nH]1 + COC1C(OC(N)=O)C(O)C(Oc2ccc3c(O)c(NC(=O)c4ccc(O)c(CC=C(C)C)c4)c(=O)oc3c2C)OC1(C)C .
Result: 84.1%

Query: I would be grateful if you could share the reported viability, T/C for O=c1[nH]cc(F)c(=O)[nH]1 + Cc1cccc(N(C)C(=O)C2C(O)CCN2c2nc(C)cc(C(F)(F)F)c2C#N)c1 .
Result: 83.5%

====

System: 926638-142-R-J1-PDC complex spheroid viability
method notes: Anticancer human tumor 926638-142-R-J1-PDC cell line growth inhibition [POLQ];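 further: spheroids exposed to drugs for one week before readout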;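 on viability, T/C: percent viability relative to DMSO vehicle control wells set as 100%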
stated conditions: second compound 3.16 µM; first compound 0.1 µM; stronger effect = lower value
endpoint label: viability, T/C (%)
Just the number please, in %, no unit attached.

Example entries and their recorded answers appear below.
CC1COCCN1c1cc(-c2ccnn2C)c2ccnc(-c3ccn[nH]3)c2n1 (stereo not drawn) + Nc1ccc(C#CCN(C(=O)Cc2ncc(C(F)(F)F)cc2C(F)(F)F)c2ccc(F)cc2)nn1    73.6
COc1ccc([C@@H](O)c2cc(-c3ncnc4cc(N5CCOCC5)ccc34)c(F)cc2Cl)nn1 + COC1C(OC(N)=O)C(O)C(Oc2ccc3c(O)c(NC(=O)c4ccc(O)c(CC=C(C)C)c4)c(=O)oc3c2C)OC1(C)C    102

# evaluate next
Query: Hi! What's the reported viability, T/C for C=CC(=O)N1CCN(c2nc(=O)n(-c3c(C)ccnc3C(C)C)c3nc(-c4c(O)cccc4F)c(F)cc23)C(C)C1 (stereo not drawn) + Cc1cccc(N(C)C(=O)C2C(O)CCN2c2nc(C)cc(C(F)(F)F)c2C#N)c1 on 926638-142-R-J1-PDC complex spheroid viability?
Result: 82.7

====

Tested on: 926638-142-R-J1-PDC complex spheroid viability
method notes: Anticancer human tumor 926638-142-R-J1-PDC cell line growth inhibition [POLQ];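 further: spheroids exposed to drugs for one week before readout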;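 on viability, T/C: percent viability relative to DMSO vehicle control wells set as 100%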
stated conditions: second compound 1 µM; first compound 0.1 µM; stronger effect = lower value
Quick reference for viability, T/C among some molecules
Just the number please, in %, no unit attached.

COc1ccc([C@@H](O)c2cc(-c3ncnc4cc(N5CCOCC5)ccc34)c(F)cc2Cl)nn1 + COC1C(OC(N)=O)C(O)C(Oc2ccc3c(O)c(NC(=O)c4ccc(O)c(CC=C(C)C)c4)c(=O)oc3c2C)OC1(C)C    82.3
O=c1[nH]cc(F)c(=O)[nH]1 + COC1C(OC(N)=O)C(O)C(Oc2ccc3c(O)c(NC(=O)c4ccc(O)c(CC=C(C)C)c4)c(=O)oc3c2C)OC1(C)C    106
CC1COCCN1c1cc(-c2ccnn2C)c2ccnc(-c3ccn[nH]3)c2n1 (stereo not given) + Cc1cccc(N(C)C(=O)C2C(O)CCN2c2nc(C)cc(C(F)(F)F)c2C#N)c1    99.3
CCc1cc2c(N3CCc4c(cc(Cn5ccnc5)cc4-c4cn(C)nc4C(F)(F)F)C3=O)cc(C)nc2c(OC)n1 + COC1C(OC(N)=O)C(O)C(Oc2ccc3c(O)c(NC(=O)c4ccc(O)c(CC=C(C)C)c4)c(=O)oc3c2C)OC1(C)C    60.7
Cn1ncnc1[C@H]1c2n[nH]c(=O)c3cc(F)cc(c23)N[C@@H]1c1ccc(F)cc1 + COC1C(OC(N)=O)C(O)C(Oc2ccc3c(O)c(NC(=O)c4ccc(O)c(CC=C(C)C)c4)c(=O)oc3c2C)OC1(C)C    76.7

Query: Hi! What's the reported viability, T/C for CC[C@@]1(O)C(=O)OCc2c1cc1n(c2=O)Cc2cc3c(CN(C)C)c(O)ccc3nc2-1 + COC1C(OC(N)=O)C(O)C(Oc2ccc3c(O)c(NC(=O)c4ccc(O)c(CC=C(C)C)c4)c(=O)oc3c2C)OC1(C)C on 926638-142-R-J1-PDC complex spheroid viability?
Result: 43.5

Query: Hi! What's the reported viability, T/C for C#Cc1c(F)ccc2cc(O)cc(-c3ncc4c(N5CC6CCC(C5)N6)nc(OCC56CCCN5CC(F)C6)nc4c3F)c12 (stereo not given) + Cc1cccc(N(C)C(=O)C2C(O)CCN2c2nc(C)cc(C(F)(F)F)c2C#N)c1 on 926638-142-R-J1-PDC complex spheroid viability?
Result: 76

Query: Hi! What's the reported viability, T/C for Cn1ncnc1[C@H]1c2n[nH]c(=O)c3cc(F)cc(c23)N[C@@H]1c1ccc(F)cc1 + Cc1cccc(N(C)C(=O)C2C(O)CCN2c2nc(C)cc(C(F)(F)F)c2C#N)c1 on 926638-142-R-J1-PDC complex spheroid viability?
Result: 68.1

Query: Hi! What's the reported viability, T/C for C=CCn1c(=O)c2cnc(Nc3ccc(N4CCN(C)CC4)cc3)nc2n1-c1cccc(C(C)(C)O)n1 + COC1C(OC(N)=O)C(O)C(Oc2ccc3c(O)c(NC(=O)c4ccc(O)c(CC=C(C)C)c4)c(=O)oc3c2C)OC1(C)C on 926638-142-R-J1-PDC complex spheroid viability?
Result: 85.2

Query: Hi! What's the reported viability, T/C for COc1ccc([C@@H](O)c2cc(-c3ncnc4cc(N5CCOCC5)ccc34)c(F)cc2Cl)nn1 + Nc1ccc(C#CCN(C(=O)Cc2ncc(C(F)(F)F)cc2C(F)(F)F)c2ccc(F)cc2)nn1 on 926638-142-R-J1-PDC complex spheroid viability?
Result: 88.9

====

Tested on: 926638-142-R-J1-PDC complex spheroid viability
method notes: Anticancer human tumor 926638-142-R-J1-PDC cell line growth inhibition [POLQ];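 further: spheroids exposed to drugs for one week before readout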
stated conditions: curve of first compound; second compound 3.16 µM
Quick reference for pIC50 among some compounds
pIC50 is a log-scale quantity: -log10 of the concentration expressed in molar.

Example entries and their recorded answers appear below.
COc1cccc2c1C(=O)c1c(O)c3c(c(O)c1C2=O)CC(O)(C(=O)CO)CC3OC1CC(N)C(O)C(C)O1 (configuration not stated) + Nc1ccc(C#CCN(C(=O)Cc2ncc(C(F)(F)F)cc2C(F)(F)F)c2ccc(F)cc2)nn1    6.93
CC1COCCN1c1cc(C2(S(C)(=N)=O)CC2)nc(-c2ccnc3[nH]ccc23)n1 (configuration not stated) + Cc1cccc(N(C)C(=O)C2C(O)CCN2c2nc(C)cc(C(F)(F)F)c2C#N)c1    5.36
CC(=O)O[C@H]1C(=O)[C@@]2(C)[C@H]([C@H](OC(=O)c3ccccc3)[C@]3(O)C[C@H](OC(=O)[C@H](O)[C@@H](NC(=O)c4ccccc4)c4ccccc4)C(C)=C1C3(C)C)[C@]1(OC(C)=O)CO[C@@H]1C[C@@H]2O + Nc1ccc(C#CCN(C(=O)Cc2ncc(C(F)(F)F)cc2C(F)(F)F)c2ccc(F)cc2)nn1    5.71

Query: Hi! What's the reported pIC50 for CC1COCCN1c1cc(-c2ccnn2C)c2ccnc(-c3ccn[nH]3)c2n1 (configuration not stated) + COC1C(OC(N)=O)C(O)C(Oc2ccc3c(O)c(NC(=O)c4ccc(O)c(CC=C(C)C)c4)c(=O)oc3c2C)OC1(C)C on 926638-142-R-J1-PDC complex spheroid viability?
Result: 6.31

====

Test system: 926638-142-R-J1-PDC complex spheroid viability
method notes: Anticancer human tumor 926638-142-R-J1-PDC cell line growth inhibition [POLQ];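 further: spheroids exposed to drugs for one week before readout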;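 on viability, T/C: percent viability relative to DMSO vehicle control wells set as 100%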
stated conditions: second compound 1 µM; first compound 3.16 µM; stronger effect = lower value
endpoint label: viability, T/C (%)
Just the number please, in %, no unit attached.

CCCS(=O)(=O)Nc1ccc(F)c(C(=O)c2c[nH]c3ncc(-c4ccc(Cl)cc4)cc23)c1F + Cc1cccc(N(C)C(=O)C2C(O)CCN2c2nc(C)cc(C(F)(F)F)c2C#N)c1    86

Query: I would be grateful if you could share the reported viability, T/C for COc1cc2cc(C(=O)CCC(=O)O)sc2cc1OC + COC1C(OC(N)=O)C(O)C(Oc2ccc3c(O)c(NC(=O)c4ccc(O)c(CC=C(C)C)c4)c(=O)oc3c2C)OC1(C)C .
Result: 97.7

Query: I would be grateful if you could share the reported viability, T/C for O=C(c1cc(Cc2n[nH]c(=O)c3ccccc23)ccc1F)N1CCN(C(=O)C2CC2)CC1 + Cc1cccc(N(C)C(=O)C2C(O)CCN2c2nc(C)cc(C(F)(F)F)c2C#N)c1 .
Result: 67.5

Query: I would be grateful if you could share the reported viability, T/C for CC1COCCN1c1cc(-c2ccnn2C)c2ccnc(-c3ccn[nH]3)c2n1 (stereo not given) + Nc1ccc(C#CCN(C(=O)Cc2ncc(C(F)(F)F)cc2C(F)(F)F)c2ccc(F)cc2)nn1 .
Result: 14.3

Query: I would be grateful if you could share the reported viability, T/C for O=C(c1cc(Cc2n[nH]c(=O)c3ccccc23)ccc1F)N1CCN(C(=O)C2CC2)CC1 + COC1C(OC(N)=O)C(O)C(Oc2ccc3c(O)c(NC(=O)c4ccc(O)c(CC=C(C)C)c4)c(=O)oc3c2C)OC1(C)C .
Result: 80.7
